System: full-length human GST-tagged PRMT1 (Homo sapiens, UniProt Q99873) | Read-out: pIC50
Sequence (Q99873 with tags, fused parts or gaps): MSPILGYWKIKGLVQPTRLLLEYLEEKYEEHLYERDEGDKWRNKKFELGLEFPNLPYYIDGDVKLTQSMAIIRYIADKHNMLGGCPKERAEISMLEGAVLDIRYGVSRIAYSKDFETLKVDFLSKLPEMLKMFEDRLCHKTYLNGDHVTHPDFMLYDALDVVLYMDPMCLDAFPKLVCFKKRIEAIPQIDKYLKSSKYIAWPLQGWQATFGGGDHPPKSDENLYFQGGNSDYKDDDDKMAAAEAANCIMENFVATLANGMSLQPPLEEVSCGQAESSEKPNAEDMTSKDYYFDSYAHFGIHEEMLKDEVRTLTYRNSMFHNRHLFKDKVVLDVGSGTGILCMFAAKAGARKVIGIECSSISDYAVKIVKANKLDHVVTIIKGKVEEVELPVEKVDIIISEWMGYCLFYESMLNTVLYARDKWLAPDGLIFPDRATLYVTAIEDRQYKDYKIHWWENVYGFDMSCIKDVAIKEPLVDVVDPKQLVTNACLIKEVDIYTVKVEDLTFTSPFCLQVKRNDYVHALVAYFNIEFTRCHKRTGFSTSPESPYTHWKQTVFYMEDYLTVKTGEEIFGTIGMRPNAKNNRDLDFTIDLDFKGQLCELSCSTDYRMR
pIC50: −log10 of the molar value.

- molecule: "CNCCN(C)Cc1c[nH]nc1-c1cc(Cl)c(OCC2CCC2)c(C(F)(F)F)c1 [Compound 35]"
  testedTarget: "full-length human GST-tagged PRMT1 (Homo sapiens, UniProt Q99873)"
  pIC50: "> 7.00"

Q: # lookup: pIC50 of CNCCN(C)Cc1c[nH]nc1-c1cc(OCCOC)c(Cl)c(C(F)(F)F)c1 [Compound 55]
A: 6.00 to 7.00

Q: What do you have for CNCCN(C)Cc1n[nH]cc1-c1cc(OCCOC)cc(C(F)(F)F)c1 [Compound 30] ?
A: 6.00 to 7.00

Q: CNCCN(C)Cc1c[nH]nc1-c1ccc(OCCOC)c(C(F)(F)F)c1 [Compound 14] ?
A: > 7.00

----------
molecular target: full-length human GST-tagged PRMT1 (Homo sapiens, UniProt Q99873)
pIC50: −log10 of the molar value.
Entries and their pIC50

Here are 2 compounds together with their reported answers.
- smilesText: "CNCCN(C)Cc1c[nH]nc1-c1cc(OCC2CCCC2)cc(C(F)(F)F)c1"
  recordedMeasurement: "> 7.00"
- smilesText: "CN(CCN)Cc1n[nH]cc1-c1cc(C(F)(F)F)cc(C(F)(F)F)c1"
  recordedMeasurement: "5.52 to 6.00"

Q: Which pIC50 value is on record for CNCCN(C)Cc1c[nH]nc1-c1cc(OCCCC(F)(F)F)cc(C(F)(F)F)c1 ?
A: > 7.00

Q: Now try CNCCN(C)Cc1c[nH]nc1-c1ccc(OCCCOC)c(C(F)(F)F)c1 .
A: > 7.00

Q: Can you check CC(C)Oc1ccc(-c2n[nH]cc2CN(C)CCN)cc1C(F)(F)F next?
A: > 7.00

Q: Next compound up: CNCCN(C)Cc1c[nH]nc1-c1cc(OCCC(C)C)c(Cl)c(C(F)(F)F)c1
A: 6.00 to 7.00
